Data origin, for the record: patent US9688764B2

- System: PC3/hPRLR cells
- assay-explanation: Cell viability (cell kill) assay
- Type: cell-based, human
- condition-description: PC3/PRLR; Table 15
pIC50: −log10 of the molar value.

molecule: COc1cc2cc(c1Cl)N(C)C(=O)C[C@H](OC(=O)[C@H](C)N(C)C(=O)CCS)[C@]1(C)O[C@H]1[C@H](C)[C@@H]1C[C@@](O)(NC(=O)O1)[C@H](OC)/C=C/C=C(\C)C2 [DM1 (free drug)]
test-system: PC3/hPRLR cells
pIC50: 9.62
